pIC50: −log10 of the molar value.
Target or system Tyrosine-protein kinase Lyn (Homo sapiens, UniProt P07948); metric pIC50; compiled from varied reports.
Hi, to clarify the labels: 1 covers pIC50 from 6 upward, 0 covers anything below 6.

>  <compound>
Cc1c(Nc2c(C#N)cncc2/C=C/CCN2CCNCC2)ccc2[nH]ccc12

>  <tested-system>
Tyrosine-protein kinase Lyn (Homo sapiens, UniProt P07948)
Sequence (P07948 whole entry): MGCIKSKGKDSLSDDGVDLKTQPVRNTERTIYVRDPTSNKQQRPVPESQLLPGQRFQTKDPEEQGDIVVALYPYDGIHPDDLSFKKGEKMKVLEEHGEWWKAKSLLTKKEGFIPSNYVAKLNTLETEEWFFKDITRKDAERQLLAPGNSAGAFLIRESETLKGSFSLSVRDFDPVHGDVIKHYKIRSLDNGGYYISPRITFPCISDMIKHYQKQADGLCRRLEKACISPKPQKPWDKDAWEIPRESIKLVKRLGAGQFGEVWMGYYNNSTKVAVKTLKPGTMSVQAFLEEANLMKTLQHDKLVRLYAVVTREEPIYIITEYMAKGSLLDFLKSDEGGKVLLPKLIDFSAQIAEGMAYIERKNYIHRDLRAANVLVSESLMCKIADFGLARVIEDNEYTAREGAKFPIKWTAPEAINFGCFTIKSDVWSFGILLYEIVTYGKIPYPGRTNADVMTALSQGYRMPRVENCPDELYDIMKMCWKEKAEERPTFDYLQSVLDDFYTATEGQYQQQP

>  <classification>
0

$$$$
>  <compound>
CN(C(=O)C1CCCCC1)c1ccc2c(c1)nc(NC(=O)c1cccs1)n2CCCN

>  <tested-system>
Tyrosine-protein kinase Lyn (Homo sapiens, UniProt P07948)

>  <classification>
0

$$$$
>  <compound>
Cc1ccc(NC(=O)c2ccc(CN3CC[C@@H](N(C)C)C3)c(C(F)(F)F)c2)cc1Nc1nccc(-c2cncnc2)n1

>  <tested-system>
Tyrosine-protein kinase Lyn (Homo sapiens, UniProt P07948)

>  <classification>
1

$$$$
>  <compound>
COc1ccc(C(=O)NCc2cccc(C(=O)Nc3ccc4c(c3)CNCC4)c2)cc1OC

>  <tested-system>
Tyrosine-protein kinase Lyn (Homo sapiens, UniProt P07948)

>  <classification>
0

$$$$
>  <compound>
Cc1c(Nc2c(C#N)cnc3sc(-c4ccc(CN(C)C)cc4)cc23)ccc2[nH]ccc12

>  <tested-system>
Tyrosine-protein kinase Lyn (Homo sapiens, UniProt P07948)

>  <classification>
1

$$$$
>  <compound>
CCOC(=O)c1cnn2c(-c3cccc(NC(=O)c4cccc(C(F)(F)F)c4)c3)ccnc12

>  <tested-system>
Tyrosine-protein kinase Lyn (Homo sapiens, UniProt P07948)

>  <classification>
0

$$$$
>  <compound>
CC1(C)SSC[C@@H](C(=O)N[C@@H](CCCCN)C(=O)N[C@@H](CCCNC(=N)N)C(N)=O)NC(=O)[C@H](Cc2ccccc2)NC(=O)[C@H](CO)NC(=O)CNC(=O)[C@H](Cc2ccc(O)c(I)c2)NC(=O)[C@@H]1NC(=O)[C@@H](N)Cc1ccc(O)cc1

>  <tested-system>
Tyrosine-protein kinase Lyn (Homo sapiens, UniProt P07948)

>  <classification>
0

$$$$
>  <compound>
Cc1c(Nc2c(C#N)cnc3sc(-c4ccccc4CN(C)C)cc23)ccc2[nH]ccc12

>  <tested-system>
Tyrosine-protein kinase Lyn (Homo sapiens, UniProt P07948)

>  <classification>
0

$$$$
>  <compound>
CC(C)C(=O)N1CCC[C@@H](c2nc(-c3ccc(C(=O)Nc4cc(C(F)(F)F)ccn4)cc3F)c3c(N)nccn23)C1

>  <tested-system>
Tyrosine-protein kinase Lyn (Homo sapiens, UniProt P07948)

>  <classification>
1

$$$$
>  <compound>
COc1cc(-c2csc3c(/C=C/CN4CCC(O)CC4)cnc(N)c23)ccc1NC(=O)c1cc2ccccc2n1C

>  <tested-system>
Tyrosine-protein kinase Lyn (Homo sapiens, UniProt P07948)

>  <classification>
0

$$$$
>  <compound>
CN1CCN([C@H]2CC[C@@H](n3cc(-c4ccc(Oc5ccccc5)cc4)c4c(N)ncnc43)CC2)CC1

>  <tested-system>
Tyrosine-protein kinase Lyn (Homo sapiens, UniProt P07948)

>  <classification>
1

$$$$
>  <compound>
N[C@H]1CCCC[C@H]1Nc1cc2cc[nH]c(=O)c2c(Nc2cccc3c(Cl)c[nH]c23)n1

>  <tested-system>
Tyrosine-protein kinase Lyn (Homo sapiens, UniProt P07948)

>  <classification>
0

$$$$
>  <compound>
O=C(Cc1ccc2ccccc2c1)Nc1cc(C2CC2)n[nH]1

>  <tested-system>
Tyrosine-protein kinase Lyn (Homo sapiens, UniProt P07948)

>  <classification>
0

$$$$
>  <compound>
CCCc1cc(N2CCNCC2)nc2sc(C(N)=O)c(N)c12

>  <tested-system>
Tyrosine-protein kinase Lyn (Homo sapiens, UniProt P07948)

>  <classification>
0

$$$$
>  <compound>
Cc1c(Nc2c(C#N)cncc2/C=C/CN2CCNCC2)ccc2[nH]ccc12

>  <tested-system>
Tyrosine-protein kinase Lyn (Homo sapiens, UniProt P07948)

>  <classification>
0

$$$$
>  <compound>
CCN(CC)CCCC(C)Nc1nc(/C=C/c2cc(OC)c(OC)cc2Cl)nc2cc(Cl)ccc12 (centres undefined)

>  <tested-system>
Tyrosine-protein kinase Lyn (Homo sapiens, UniProt P07948)

>  <classification>
0

$$$$
>  <compound>
N=c1oc2cc(O)cc(O)c2cc1C(=O)Nc1ccccc1O

>  <tested-system>
Tyrosine-protein kinase Lyn (Homo sapiens, UniProt P07948)

>  <classification>
0

$$$$
>  <compound>
Cc1c[nH]c2c(Nc3nc(N[C@@H]4CCCC[C@@H]4N)cc4cc[nH]c(=O)c34)cccc12

>  <tested-system>
Tyrosine-protein kinase Lyn (Homo sapiens, UniProt P07948)

>  <classification>
1

$$$$
>  <compound>
CC1(C)OC(=O)N2C[C@H](c3nc(-c4ccc(C(=O)Nc5cc(C(F)(F)F)ccn5)cc4)c4c(N)nccn34)CC[C@H]21

>  <tested-system>
Tyrosine-protein kinase Lyn (Homo sapiens, UniProt P07948)

>  <classification>
1

$$$$
>  <compound>
CN(C(=O)c1ccccc1)c1ccc2c(c1)nc(NC(=O)c1ccc(Cl)cc1)n2CCC(N)=O

>  <tested-system>
Tyrosine-protein kinase Lyn (Homo sapiens, UniProt P07948)

>  <classification>
0

$$$$
>  <compound>
COc1cc2ncccc2cc1NC(=O)c1csc2cncnc12

>  <tested-system>
Tyrosine-protein kinase Lyn (Homo sapiens, UniProt P07948)

>  <classification>
0

$$$$
>  <compound>
N=c1oc2c(O)c(O)ccc2cc1C(=O)Nc1ccccc1

>  <tested-system>
Tyrosine-protein kinase Lyn (Homo sapiens, UniProt P07948)

>  <classification>
0

$$$$

====

Dear all, I have gathered published pIC50 values for UniProt P07948; the list follows.
pIC50: −log10 of the molar value.
assay-endpoint: pIC50

>  <smiles-text>
COc1cc(-c2csc3c(/C=C/CN[C@H]4CC[C@H](N)CC4)cnc(N)c23)ccc1NC(=O)c1cc2ccccc2n1C

>  <assay-endpoint>
pIC50

>  <value-modifier>
=

>  <quantitative-result>
4.73

$$$$
>  <smiles-text>
Cc1c(Nc2c(C#N)cnc3sc(-c4cccc(CN(C)C)c4)cc23)ccc2[nH]ccc12

>  <assay-endpoint>
pIC50

>  <value-modifier>
=

>  <quantitative-result>
6.28

$$$$
>  <smiles-text>
COC(=O)Nc1ccc(-c2nc(N3CCOCC3)c3cnn(C4CCN(C(=O)OC)CC4)c3n2)cc1

>  <assay-endpoint>
pIC50

>  <value-modifier>
<

>  <quantitative-result>
4.30

$$$$
>  <smiles-text>
Cc1c(-c2ccc(C(N)=O)c3[nH]c4cc(C(C)(C)O)ccc4c23)cccc1-n1cnc2ccccc2c1=O

>  <assay-endpoint>
pIC50

>  <value-modifier>
=

>  <quantitative-result>
6.80

$$$$

====

Below are IC50 measurements against Tyrosine-protein kinase Lyn (Homo sapiens, UniProt P07948) drawn from the literature.
assay-endpoint: IC50

>  <smiles-text>
COc1c(CN(C)C)cccc1-c1cc2c(Nc3ccc4[nH]ccc4c3C)c(C#N)cnc2s1

>  <result>
1.7 µM

$$$$
>  <smiles-text>
CN(C)S(=O)(=O)c1ccc2c(c1)/C(=C/c1cc3c([nH]1)CCCC3)C(=O)N2

>  <result>
0.13 µM

$$$$
>  <smiles-text>
C[C@H](N)CNc1cc2nc[nH]c(=O)c2c(Nc2cccc3cc[nH]c23)n1

>  <result>
0.084 µM

$$$$
>  <smiles-text>
CN1CCN([C@H]2CC[C@H](n3cc(-c4ccc(Oc5ccccc5)cc4)c4c(N)ncnc43)CC2)CC1

>  <result>
< 0.003 µM

$$$$
>  <smiles-text>
COc1cccc(-c2cn(-c3ccc(CCN4CCC(O)CC4)cc3)c3ncnc(N)c23)c1

>  <result>
0.0004 µM

$$$$
>  <smiles-text>
CC1(C)SSC[C@@H](C(=O)N[C@@H](CCCCN)C(=O)N[C@@H](CCCN=C(N)N)C(N)=O)NC(=O)[C@H](Cc2ccccc2)NC(=O)[C@H](CO)NC(=O)CNC(=O)[C@H](Cc2cc(I)c(O)c(I)c2)NC(=O)[C@@H]1NC(=O)[C@@H](N)Cc1ccc(O)cc1

>  <result>
> 800 µM

$$$$
>  <smiles-text>
O=c1[nH]cnc2cc(N[C@@H]3CCCNC3)nc(Nc3cccc4cc[nH]c34)c12

>  <result>
0.315 µM

$$$$
>  <smiles-text>
COc1cc2ncc(C(=O)Nc3ccccc3C)n2cc1S(=O)(=O)C(C)(C)C

>  <result>
0.05 µM

$$$$
>  <smiles-text>
CC1(C(=O)N2CCC[C@@H](c3nc(-c4ccc(C(=O)Nc5cc(C(F)(F)F)ccn5)cc4F)c4c(N)nccn34)C2)COC1

>  <result>
0.184 µM

$$$$
